Experiment notes: Plasma protein binding by equilibrium dialysis
Assay type: in vitro ADME
Measurement setup: both sexes, pooled plasma, pH 7.4, human plasma protein binding, read-out: PPB
Experimental endpoint: fraction unbound at 4 h, 10 μM

>>> result_value("CC[C@@H](NC(=O)N1C(=O)[C@H](Cc2ccnc(N)c2)[C@H]1C(=O)N(C)c1ncccn1)c1ccccc1 [Compound 84]")
"0.1 to 0.5"
>>> result_value("CC[C@@H](NC(=O)N1C(=O)[C@H](Cc2ccnc(N)c2)[C@H]1C(=O)N(C)c1ncncn1)C1CCCCC1 [Compound 81]")
"< 0.05"
>>> result_value("CCC[C@@H](NC(=O)N1C(=O)[C@H](Cc2ccnc(N)c2)[C@H]1C(=O)N(C)c1ccncc1)c1ccccc1 [Compound 86]")
"< 0.05"
>>> result_value("CN(C(=O)[C@@H]1[C@@H](Cc2ccnc(N)c2)C(=O)N1C(=O)NC(c1ccccc1)c1ccccc1)c1ccncc1 [Compound 82]")
"0.05 to 0.09"
>>> result_value("CC[C@@H](NC(=O)N1C(=O)[C@H](Cc2ccnc(N)c2)[C@H]1C(=O)N(C)c1ccncc1)c1ccccc1Cl [Compound 95]")
"0.05 to 0.09"

* * *

Test target: human Factor XIa (Homo sapiens)
Sequence (P03951 388-625 limits assumed): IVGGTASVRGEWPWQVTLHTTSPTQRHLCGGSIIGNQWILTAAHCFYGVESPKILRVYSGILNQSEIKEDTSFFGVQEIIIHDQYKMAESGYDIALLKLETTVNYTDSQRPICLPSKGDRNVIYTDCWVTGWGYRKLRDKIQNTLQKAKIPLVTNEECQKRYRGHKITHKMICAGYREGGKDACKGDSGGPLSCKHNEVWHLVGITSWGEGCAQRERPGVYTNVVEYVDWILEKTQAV
Sequence (P03951 19-387 partner limits assumed): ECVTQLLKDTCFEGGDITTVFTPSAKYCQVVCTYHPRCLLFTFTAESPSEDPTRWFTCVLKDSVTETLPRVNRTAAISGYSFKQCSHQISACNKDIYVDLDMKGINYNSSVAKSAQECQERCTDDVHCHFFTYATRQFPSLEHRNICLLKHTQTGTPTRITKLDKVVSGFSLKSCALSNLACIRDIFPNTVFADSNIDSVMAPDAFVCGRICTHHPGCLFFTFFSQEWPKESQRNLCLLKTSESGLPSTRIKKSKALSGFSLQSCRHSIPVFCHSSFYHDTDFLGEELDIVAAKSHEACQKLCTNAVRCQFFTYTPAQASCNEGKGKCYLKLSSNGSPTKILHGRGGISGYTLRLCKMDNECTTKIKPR
pIC50: −log10 of the molar value.
Experimental endpoint: pIC50

>>> result_value("CC[C@@H](NC(=O)N1C(=O)[C@H](Cc2ccnc(N)c2)[C@H]1C(=O)N(C)c1cccc(OC)c1)C1CCCCC1 [Compound 28]")
"> 8.00"
>>> result_value("CCN(C(=O)[C@@H]1[C@@H](Cc2ccnc(N)c2)C(=O)N1C(=O)N[C@@H](C1CCCCC1)C(F)(F)F)c1ccccc1 [Compound 24]")
"7.00 to 8.00"
>>> result_value("Cc1cc(N(C)C(=O)[C@@H]2[C@@H](Cc3ccnc(N)c3)C(=O)N2C(=O)N[C@@H](C2CCCCC2)C2CC2)ccn1 [Compound 56]")
"> 8.00"
>>> result_value("CC[C@@H](NC(=O)N1C(=O)[C@H](Cc2cc(C)nc(N)c2)[C@H]1C(=O)N(C)c1ncccn1)c1cccc(Cl)c1 [Compound 135]")
"> 8.00"
>>> result_value("CC[C@@H](NC(=O)N1C(=O)[C@H](Cc2ccnc(N)c2)[C@H]1C(=O)N(C)c1ccncc1)c1cccc(Cl)c1 [Compound 90]")
"> 8.00"
>>> result_value("CC[C@H](c1cccc(Cl)c1)N(C)C(=O)N1C(=O)[C@H](Cc2ccnc(N)c2)[C@H]1C(=O)N(C)c1ccncc1 [Compound 113]")
"> 8.00"
>>> result_value("CC[C@@H](NC(=O)N1C(=O)[C@H](Cc2ccnc(N)c2)[C@H]1C(=O)N(C)c1cccc(C)c1)c1cccc(Cl)c1 [Compound 117]")
"> 8.00"
>>> result_value("CC[C@@H](NC(=O)N1C(=O)[C@H](Cc2ccnc(N)c2)[C@H]1C(=O)N(C)c1ccnc(C)c1)c1cccc(Cl)c1 [Compound 124]")
"> 8.00"
>>> result_value("CC[C@@H](NC(=O)N1C(=O)[C@H](Cc2ccnc(N)c2)[C@H]1C(=O)N(C)c1ccncc1)c1cccc(OC(F)(F)F)c1 [Compound 106]")
"7.00 to 8.00"
>>> result_value("C[C@@H](NC(=O)N1C(=O)[C@H](Cc2ccnc(N)c2)[C@H]1C(=O)N(C)c1ccccc1)C1CCCCC1 [Compound 49]")
"> 8.00"
>>> result_value("CCN(C(=O)[C@@H]1[C@@H](Cc2ccnc(N)c2)C(=O)N1C(=O)N[C@@H](C1CCCCC1)C(F)(F)F)c1ccncc1 [Compound 33]")
"> 8.00"
>>> result_value("CC[C@@H](NC(=O)N1C(=O)[C@H](Cc2ccnc(N)c2)[C@H]1C(=O)N(C)c1ccncc1)c1cccnc1 [Compound 59]")
"> 8.00"
>>> result_value("CC[C@@H](NC(=O)N1C(=O)[C@H](Cc2cc(C)nc(N)c2)[C@H]1C(=O)N(C)c1ccccc1)c1ccccc1 [Compound 119]")
"> 8.00"
>>> result_value("CN(C(=O)[C@@H]1[C@@H](Cc2ccnc(N)c2)C(=O)N1C(=O)N[C@@H](C1CCCCC1)C(F)(F)F)c1ncccn1 [Compound 21]")
"> 8.00"
>>> result_value("Nc1cc(C[C@H]2C(=O)N(C(=O)N[C@@H](C3CCCCC3)C(F)(F)F)[C@@H]2C(=O)N2CCCc3ccccc32)ccn1 [Compound 76]")
"7.00 to 8.00"
>>> result_value("CC[C@@H](NC(=O)N1C(=O)[C@H](Cc2ccnc(N)c2)[C@H]1C(=O)N(C)c1cccc(F)c1)c1ccc(C)nc1 [Compound 136]")
"> 8.00"
>>> result_value("CCN(C(=O)[C@@H]1[C@@H](Cc2ccnc(N)c2)C(=O)N1C(=O)N[C@@H](C1CCCCC1)C(F)(F)F)c1ccnc(C)c1 [Compound 34]")
"> 8.00"
>>> result_value("CN(C(=O)[C@@H]1[C@@H](Cc2ccnc(N)c2)C(=O)N1C(=O)N[C@@H](C1CCCCC1)C(F)(F)F)c1cncnc1 [Compound 19]")
"> 8.00"
>>> result_value("CC[C@@H](NC(=O)N1C(=O)[C@H](Cc2cc(N)ncc2C)[C@H]1C(=O)N(C)c1ccncc1)C1CCCCC1 [Compound 92]")
"7.00 to 8.00"
>>> result_value("CN(C(=O)[C@@H]1[C@@H](Cc2ccnc(N)c2)C(=O)N1C(=O)N[C@@H](C1CCCCC1)C(F)(F)F)c1ccncn1 [Compound 20]")
"> 8.00"
>>> result_value("CC[C@@H](NC(=O)N1C(=O)[C@H](Cc2ccnc(N)c2)[C@H]1C(=O)N(C)c1ncccn1)C1CCCCC1 [Compound 37]")
"> 8.00"
